Hello, the source for this data is patent US20210107971A1, in case you need it.

- Target desc: recombinant full-length human alpha synuclein monomer (human, UniProt P37840 1-140)
- Experiment: SPR, Biacore T200, as in Example 3; Fab injected;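 note: ligands amine-coupled on CM5 chip flow cells, HBS-EP+ running buffer, kinetic data fitted with 1:1 model allowing local bulk contribution and global Rmax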
Assay metric: koff (s⁻¹)

{"columns": ["Binder", "Numeric result"],
 "data": [
  ["6470 rabbit Fab with light chain mutation N33R (Fab, V domains shown) VH: QSVEESGGRLVTPGTPLTLTCTVSGIDLSSHDMYWVRQAPGKGLEYIGAIYASGSTYYASWAKGRFTISKTSTTVDLKMTSLTTEDTATYFCARIHYGNSGGLWGQGTLVTVSS VL: AIVMTQTPSSKSVAVGDTVTINCQASQSVYKNRYLAWFQQKPGQPPKQLIYGASTLASGVPSRFKGSGSGTQFTLTISDVVCDDAATYYCAGYKGGRNDGFAFGGGTEVVVKR", 0.0799],
  ["6470 rabbit Fab with heavy chain mutation H31Q (Fab, V domains shown) VH: QSVEESGGRLVTPGTPLTLTCTVSGIDLSSQDMYWVRQAPGKGLEYIGAIYASGSTYYASWAKGRFTISKTSTTVDLKMTSLTTEDTATYFCARIHYGNSGGLWGQGTLVTVSS VL: AIVMTQTPSSKSVAVGDTVTINCQASQSVYKNNYLAWFQQKPGQPPKQLIYGASTLASGVPSRFKGSGSGTQFTLTISDVVCDDAATYYCAGYKGGRNDGFAFGGGTEVVVKR", 0.185],
  ["6470 rabbit Fab with heavy chain mutation H31K (Fab, V domains shown) VH: QSVEESGGRLVTPGTPLTLTCTVSGIDLSSKDMYWVRQAPGKGLEYIGAIYASGSTYYASWAKGRFTISKTSTTVDLKMTSLTTEDTATYFCARIHYGNSGGLWGQGTLVTVSS VL: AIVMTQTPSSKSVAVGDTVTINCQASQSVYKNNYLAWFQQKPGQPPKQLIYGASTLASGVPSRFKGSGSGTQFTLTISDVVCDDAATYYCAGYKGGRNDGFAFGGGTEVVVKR", 0.938],
  ["6470 rabbit Fab with heavy chain mutation N99W (Fab, V domains shown) VH: QSVEESGGRLVTPGTPLTLTCTVSGIDLSSHDMYWVRQAPGKGLEYIGAIYASGSTYYASWAKGRFTISKTSTTVDLKMTSLTTEDTATYFCARIHYGWSGGLWGQGTLVTVSS VL: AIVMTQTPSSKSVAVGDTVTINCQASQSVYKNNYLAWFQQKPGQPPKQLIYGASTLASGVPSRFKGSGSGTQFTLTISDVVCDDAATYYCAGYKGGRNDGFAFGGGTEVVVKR", 0.566],
  ["6470 rabbit Fab with heavy chain mutation N99Q (Fab, V domains shown) VH: QSVEESGGRLVTPGTPLTLTCTVSGIDLSSHDMYWVRQAPGKGLEYIGAIYASGSTYYASWAKGRFTISKTSTTVDLKMTSLTTEDTATYFCARIHYGQSGGLWGQGTLVTVSS VL: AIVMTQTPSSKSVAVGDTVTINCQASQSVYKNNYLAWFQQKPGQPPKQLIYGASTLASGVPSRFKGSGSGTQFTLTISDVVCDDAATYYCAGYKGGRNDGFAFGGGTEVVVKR", 0.493]
]}
